- Test system: Ishikawa cells
- assay-protocol: Sulforhodamine B (SRB) cell viability assay
- Assay type: cell-based, human
- measurement-setup: Ishikawa cells, 48 h incubation, at least three independent SRB assays
# Onset of cytotoxicity (lowest observed effect level), LOEL listing for each entry below
Your reply should be a number followed by the unit it is expressed in.

Example cases with answers are listed next.
| molecule | target-system | measurement |
| --- | --- | --- |
| O=S1OCC2C(CO1)C1(Cl)C(Cl)=C(Cl)C2(Cl)C1(Cl)Cl (centres unmarked) [End, endosulfan] | Ishikawa cells | 50 µM |
| COc1cc(O)c(CC=C(C)C)c2c1C(=O)CC(c1ccc(O)cc1)O2 (centres unmarked) [iX, isoxanthohumol] | Ishikawa cells | 100 µM |

Lookup: Item OC(c1ccc(Cl)cc1)(c1ccc(Cl)cc1)C(Cl)(Cl)Cl [Dic, dicofol] has what recorded Onset of cytotoxicity (lowest observed effect level), LOEL?
Found: 50 µM

Lookup: For the molecule CNC(=O)Oc1cc(C)c(SC)c(C)c1 [Met, methiocarb] , what Onset of cytotoxicity (lowest observed effect level), LOEL is on record?
Found: 100 µM

Lookup: Returns the measured Onset of cytotoxicity (lowest observed effect level), LOEL for the input molecule. Input: OC(c1ccc(Cl)cc1)(c1cncnc1)c1ccccc1Cl (centres unmarked) [Fen, fenarimol]
Found: 100 µM
